Test: NCI Yeast Anticancer Drug Screen. Data for the cln2 rad14 strain (AID 165);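 further: 0% = growth equal to vehicle treated cultures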
Conditions: S. cerevisiae cln2 rad14 strain, at 50.0 µM, stronger effect = higher value
This is part of a sample that, as a whole, favours compounds with a hit. Of some 79,000 tested, about 15% had one in any assay.
In this section, each of the molecules is paired with its reported growth inhibition.
Report the figure in % without appending any unit label.

The examples below pair each entry with its known result.
| Molecule | Reported |
| --- | --- |
| C[Si](C)(C)C#C[I+]c1ccccc1 | 5.65 |
| O=S1(=O)C=CC(N/N=C\c2ccc3ccccc3n2)=C1 | -36.8 |
| C/C(=N/NC(=S)Nc1ccccc1Cl)c1cccc(/C(C)=N\NC(=S)Nc2ccccc2Cl)n1 | 6.3 |
| COc1cc(/C=N/NC(N)=O)cc(OC)c1O | -14.6 |
| CCCCCC(C)(O)CCCCC | 11.7 |

Exam item: Could you tell me which growth inhibition is on file for Fc1ccc(-c2nc3ccccc3[nH]2)cc1 ?
Marked response: -8.4

Exam item: Could you tell me which growth inhibition is on file for O=C(O)CCCC1(CCCC(=O)O)OCCO1 ?
Marked response: -60.5

Exam item: Could you tell me which growth inhibition is on file for COC(=O)N1CCc2c([nH]oc2=O)C1 ?
Marked response: -13.4

Exam item: Could you tell me which growth inhibition is on file for CO/N=C1\CC(NC(=O)CNC(=O)OC(C)(C)C)c2ccsc21 (configuration not stated) ?
Marked response: 4.3

Exam item: Could you tell me which growth inhibition is on file for C[N+](C)(C)c1cc2c(nn1)Nc1ccccc1S2 ?
Marked response: 14.7

Exam item: Could you tell me which growth inhibition is on file for O=[n+]1c2c(n([O-])c3cc(Cl)c(Cl)cc31)CCC2 ?
Marked response: 5.05

Exam item: Could you tell me which growth inhibition is on file for CC(C)N1CCN(c2ccncc2S(=O)(=O)N2CCCCC2)CC1 ?
Marked response: -5.5

---

Assay: NCI Yeast Anticancer Drug Screen. Data for the mlh1 rad18 strain (AID 175)
Conditions: S. cerevisiae mlh1 rad18 strain growth inhibition; at 50.0 µM; stronger effect = higher value
This is part of a sample that, as a whole, favours compounds with a hit. Of some 79,000 tested, about 15% had one in any assay.
In this section, each of the compounds is paired with its reported growth inhibition.
Report the figure in % without appending any unit label.

| Compound | Reported |
| --- | --- |
| CNC(=O)OCc1c(COC(=O)NC)c(C)n(-c2ccc3c(c2)OCO3)c1C | -40.3 |
| O=C(Nc1ccccc1)Nc1ccc2ccccc2c1 | -10.9 |
| COc1ccc(/C=C(/C#N)C(N)=O)c(OC)c1 | 2.55 |
| COc1ccc(C(CC(=O)O)c2ccccc2)cc1 (stereo unspecified) | -28.6 |

Exam item: Could you tell me which growth inhibition is on file for COc1ccc(NC(=O)CCc2cc(-c3ccc(O)c(OC)c3)nc(NC#N)n2)cc1 ?
Marked response: -28.9

Exam item: Could you tell me which growth inhibition is on file for COC(=O)c1cc(NC(=O)Nc2ccc(Cl)cc2[N+](=O)[O-])cc(C(=O)OC)c1 ?
Marked response: -11.1

Exam item: Could you tell me which growth inhibition is on file for O=C(O)CC(SSCc1ccccc1)C(=O)O (stereo unspecified) ?
Marked response: 20.8

Exam item: Could you tell me which growth inhibition is on file for C=CC1CC[N-]CC1.[Cl][Cu][Cl] ?
Marked response: 6.35

Exam item: Could you tell me which growth inhibition is on file for CCOC(=O)CN(c1c(C)cc(C)c(N(CC(=O)OCC)S(=O)(=O)c2ccccc2)c1C)S(=O)(=O)c1ccccc1 ?
Marked response: 19.9

Exam item: Could you tell me which growth inhibition is on file for O=C(O)/C=C\CCCCC(=O)O ?
Marked response: 37.5

Exam item: Could you tell me which growth inhibition is on file for [N-]=[N+]=NC1(Cc2ccccc2)C(=O)c2cccc3c2N(CCC3)C1=O (stereo unspecified) ?
Marked response: -11.2
